- Test Name: Half-life determination in human liver microsomes
- Type: in vitro ADME
- Conditions: human, 1 μM, NADPH, Rep 1, read-out: Half-life, t½, Rep 1
Listed next: entries and their corresponding half-life at 1 μM.

Answered examples (2):
# Molecule, half-life at 1 μM
rows = [
    ("CC(C)Nc1cc(-c2c[nH]c(C(=O)N[C@H](CO)c3cccc(Cl)c3)c2)c(Cl)cn1 [Ulixertinib, reference compound]", "49.2 min"),
    ("[2H]C(C)(C)Nc1cc(-c2c[nH]c(C(=O)N[C@H](CO)c3cccc(Cl)c3)c2)c(Cl)cn1 [Formula 21]", "60.9 min"),
]

Tell me the measured half-life at 1 μM of [2H]C([2H])([2H])C(Nc1cc(-c2c[nH]c(C(=O)N[C@H](CO)c3cccc(Cl)c3)c2)c(Cl)cn1)C([2H])([2H])[2H] [Formula 19] , please. 43.4 min

Try this molecule next: [2H]C([2H])([2H])C([2H])(Nc1cc(-c2c[nH]c(C(=O)N[C@H](CO)c3cccc(Cl)c3)c2)c(Cl)cn1)C([2H])([2H])[2H] [Formula 18] 59.2 min

---

Listed next: entries and their corresponding pIC50.
- Tgt: CYP2C9 (Homo sapiens)
- Construct: from tissue; host or cells: human liver microsomes, mixed-gender pool of 200
- Sequence (P11712 whole entry): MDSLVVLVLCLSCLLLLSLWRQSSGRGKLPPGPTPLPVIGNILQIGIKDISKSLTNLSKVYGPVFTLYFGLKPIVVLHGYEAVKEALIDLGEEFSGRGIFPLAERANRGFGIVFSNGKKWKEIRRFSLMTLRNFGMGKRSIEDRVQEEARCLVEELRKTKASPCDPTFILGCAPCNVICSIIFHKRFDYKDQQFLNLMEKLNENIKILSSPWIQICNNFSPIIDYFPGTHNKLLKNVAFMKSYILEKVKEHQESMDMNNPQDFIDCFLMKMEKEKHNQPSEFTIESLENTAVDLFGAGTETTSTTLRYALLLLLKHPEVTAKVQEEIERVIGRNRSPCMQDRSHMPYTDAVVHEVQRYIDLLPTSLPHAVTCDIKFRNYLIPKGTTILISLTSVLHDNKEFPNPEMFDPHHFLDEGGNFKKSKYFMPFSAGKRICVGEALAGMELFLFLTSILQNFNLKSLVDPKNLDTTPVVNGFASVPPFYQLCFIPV
- Test Name: In-vitro CYP inhibition study, CYP2C9
- Format: in vitro ADME
- Conditions: human liver microsomes, substrate Diclofenac (12 μM), preincubation 0 min
The scale used: pIC50 is minus the common logarithm of the concentration in molar units.

Answered examples (3):
# Molecule, pIC50
records = [
    ("CC(C)Nc1cc(-c2c[nH]c(C(=O)N[C@H](CO)c3cccc(Cl)c3)c2)c(Cl)cn1 [Ulixertinib, reference compound]", 5.51),
    ("[2H]C([2H])([2H])C([2H])(Nc1cc(-c2c[nH]c(C(=O)N[C@H](CO)c3cccc(Cl)c3)c2)c(Cl)cn1)C([2H])([2H])[2H]", 5.46),
    ("Cl.[2H]C(C)(C)Nc1cc(-c2c[nH]c(C(=O)N[C@H](CO)c3cccc(Cl)c3)c2)c(Cl)cn1 [Formula 21A]", 5.47),
]

Please examine the following record next.
Tell me the measured pIC50 of [2H]C([2H])([2H])C(Nc1cc(-c2c[nH]c(C(=O)N[C@H](CO)c3cccc(Cl)c3)c2)c(Cl)cn1)C([2H])([2H])[2H] , please. 5.51

---

- System: CYP3A4 mRNA expression
- Conditions: human, hepatocytes, 24 h, 10 μM
Reported Endpoint: Fold Change in mRNA Expression of CYP3A4 (fold)
Report the figure in fold without appending any unit label.

Answered examples (3):
# Compound, Tgt, Fold Change in mRNA Expression of CYP3A4 (fold)
data = [
    ("CC(C)Nc1cc(-c2c[nH]c(C(=O)N[C@H](CO)c3cccc(Cl)c3)c2)c(Cl)cn1 [Ulixertinib, reference compound]", "CYP3A4 mRNA expression", 6.84),
    ("[2H]C([2H])([2H])C(Nc1cc(-c2c[nH]c(C(=O)N[C@H](CO)c3cccc(Cl)c3)c2)c(Cl)cn1)C([2H])([2H])[2H]", "CYP3A4 mRNA expression", 9.42),
    ("Cl.[2H]C(C)(C)Nc1cc(-c2c[nH]c(C(=O)N[C@H](CO)c3cccc(Cl)c3)c2)c(Cl)cn1 [Formula 21A]", "CYP3A4 mRNA expression", 5.29),
]

Please examine the following record next.
Tell me the measured Fold Change in mRNA Expression of CYP3A4 of [2H]C([2H])([2H])C([2H])(Nc1cc(-c2c[nH]c(C(=O)N[C@H](CO)c3cccc(Cl)c3)c2)c(Cl)cn1)C([2H])([2H])[2H] , please. 5.39
